Target: human APJ receptor (Homo sapiens)
Construct: expressed in transfected cells
Sequence (P35414 whole entry): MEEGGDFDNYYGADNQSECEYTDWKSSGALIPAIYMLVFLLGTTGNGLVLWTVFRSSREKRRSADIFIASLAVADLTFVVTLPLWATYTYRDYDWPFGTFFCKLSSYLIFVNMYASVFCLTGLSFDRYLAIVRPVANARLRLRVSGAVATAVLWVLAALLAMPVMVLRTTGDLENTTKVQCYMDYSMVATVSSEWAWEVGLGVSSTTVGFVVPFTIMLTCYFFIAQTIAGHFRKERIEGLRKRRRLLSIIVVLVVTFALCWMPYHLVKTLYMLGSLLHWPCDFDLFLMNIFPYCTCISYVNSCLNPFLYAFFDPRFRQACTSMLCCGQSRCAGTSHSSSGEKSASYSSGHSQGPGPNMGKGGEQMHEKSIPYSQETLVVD
Assay: Intracellular cAMP accumulation assay (APJ hcAMP, HTRF)
Type: cell-based
Conditions: Table 2; HEK293 cells stably expressing human APJ receptor; read-out: APJ cAMP Human EC50
Task for the reader: assign each of the following compounds its reported EC50.

Ask | Any idea what its EC50 is? The compound is CCC[C@@H](NC(=O)c1ccc(-c2cc(Cl)ccc2-c2nc3c(O)cccc3[nH]2)c(C(=O)O)c1)c1ccccc1 [Example 20]
Reply | < 10 nM

Ask | Same lookup for CCC[C@@H](NC(=O)c1ccc(-c2cc(Cl)ccc2-c2nc3cc(CC(F)(F)F)ccc3[nH]2)c(C(=O)O)c1)c1ccccc1 [Example 16] , please.
Reply | < 10 nM

Ask | Same lookup for CCC[C@@H](NC(=O)c1ccc(-c2cc(Cl)ccc2-c2nc3cc(OC(F)(F)F)ccc3[nH]2)c(C(=O)O)c1)c1ccccc1 [Example 22] , please.
Reply | 10 to 100 nM

Ask | Same lookup for CCC[C@@H](NC(=O)c1ccc(-c2cc(Cl)ccc2-c2nc3cc(C(F)(F)F)ccc3[nH]2)c(C(=O)O)c1)c1ccccc1 [Example 18] , please.
Reply | < 10 nM

Ask | Same lookup for COC[C@@H](NC(=O)c1ccc(-c2cc(Cl)ccc2-c2nc3cc(Cl)ccc3[nH]2)c(C(=O)O)c1)c1ccccc1 [Example 79] , please.
Reply | < 10 nM

Ask | Same lookup for COC[C@@H](NC(=O)c1ccc(-c2cc(Cl)ccc2-c2nc3cc(C(C)(C)C)ccc3[nH]2)c(C(=O)O)c1)c1ccccc1 [Example 80] , please.
Reply | < 10 nM

Where do these numbers come from? They come from patent US11498903B2.
